targetEntity: MASP-2 CCP2-SP (Homo sapiens (Human))
assayProtocol: MASP-2 co-crystallization, X-ray crystallography and structure analysis (H-bonds, van der Waals contacts)
experimentalParameters: Table A4-1; element CA1
Where a name gives a salt, the structure may show the parent alone.
Rule: Ligand-pharmacophore element distance, pharmacophore element CA1 under 0.4 gives rule not met, otherwise rule met.

{"columns": ["molecule", "className"],
 "data": [
  ["C[C@H](NC(=O)[C@H]1C[C@@H](c2ccccc2)CN1)C(=O)NCc1ccc2c(N)nccc2c1.Cl.Cl [1089_A]", "rule met"],
  ["C[C@H](NC(=O)[C@H]1C[C@@H](c2ccccc2)CCN1)C(=O)NCc1cc(Cl)ccc1O.Cl [1078_5]", "rule met"],
  ["Cc1cnc(NCCc2ccccc2)c(=O)n1CC(=O)NCc1ccc2nc(N)[nH]c2c1 [compound 1492]", "rule met"],
  ["Cc1cccc([C@H]2CN[C@@H](C(=O)N[C@@H](C)C(=O)NCc3ccc(N)nc3C)C2)c1 [compound 1257, Dihydrochloride]", "rule met"],
  ["C[C@H](NC(=O)[C@H](N)CCCc1ccccc1)C(=O)NCc1ccc(C(=N)N)cc1.Cl.Cl [1042_1]", "rule met"],
  ["C[C@H](NC(=O)[C@H]1C[C@H](Cc2ccccc2)CN1)C(=O)NCc1ccc(C(=N)N)cc1.Cl.Cl [1306_1]", "rule not met"],
  ["C[C@H](NC(=O)[C@H]1C[C@@H](c2ccccc2)CCN1)C(=O)NCc1cc(Cl)ccc1O.Cl [1078_12]", "rule met"],
  ["Cc1nc(N)ccc1CNC(=O)[C@H](C)NC(=O)[C@H]1C[C@H](Cc2ccc3ccccc3c2)CN1 [compound 1338]", "rule met"],
  ["Cc1nc(N)ccc1CNC(=O)C(C)NC(=O)C1CC(c2cccc3ccccc23)CCN1.Cl.Cl (stereo not drawn) [1297_6]", "rule not met"],
  ["CC(NC(=O)C(CCc1ccccc1)NCc1ccc(C(=O)N2CCOCC2)cc1)C(=O)NCc1ccc(C(=N)N)cc1.Cl.Cl (stereo not drawn) [1153_A]", "rule met"],
  ["CC(NC(=O)C1CC(Cc2ccccc2)CN1)C(=O)NCc1cnc2c(c1)c(Cl)cn2C.Cl.Cl (mixture of isomers) [1450_A]", "rule met"],
  ["Cc1nc(N)ccc1CNC(=O)[C@H](C)NC(=O)[C@H]1C[C@H](Cc2ccccc2-c2ccccc2)CN1 [compound 1373, Di-trifluoroacetate salt]", "rule met"],
  ["N=C(N)c1ccc(CNC(=O)[C@@H]2CCN2C(=O)[C@H]2Cc3ccccc3CN2)cc1 [compound 1034]", "rule not met"],
  ["C[C@H](NC(=O)[C@@H](CCc1ccccc1)NCc1ccc(N2CCOCC2)cc1)C(=O)NCc1ccc(C(=N)N)cc1 [compound 1149]", "rule not met"],
  ["C[C@H](NC(=O)[C@H]1C[C@@H](c2ccccc2)CN1)C(=O)NCc1ccc(C(=N)N)cc1 [compound 1037]", "rule not met"]
]}

----------
# d(CA1,O2) listing for each entry below
targetEntity: MASP-2 CCP2-SP (Homo sapiens (Human))
assayProtocol: MASP-2 co-crystallization, X-ray crystallography and structure analysis (H-bonds, van der Waals contacts)
Parameters: unit not given beside the values
experimentalParameters: Table A5-1 pharmacophore: distance between elements, S2/S1 region

{"columns": ["compound", "d(CA1,O2)"],
 "data": [
  ["CC(NC(=O)C1CC(Cc2ccccc2)CN1)C(=O)NCc1cnc2c(c1)c(Cl)cn2C.Cl.Cl (centres unmarked) [1450_B]", 4.57],
  ["Cc1cnc(NCCc2ccccc2)c(=O)n1CC(=O)NCc1ccc2nc(N)[nH]c2c1", 6.47],
  ["C[C@H](NC(=O)[C@H]1C[C@H](Cc2ccccc2)CN1)C(=O)NCc1ccc(C(=N)N)cc1.Cl.Cl [1306_2]", 4.29],
  ["C[C@H](NC(=O)[C@H](N)CCCc1ccccc1)C(=O)NCc1ccc(C(=N)N)cc1.Cl.Cl [1042_1]", 4.13],
  ["C[C@H](NC(=O)[C@H]1C[C@@H](c2ccccc2)CCN1)C(=O)NCc1cc(Cl)ccc1O.Cl [1078_1]", 4.72],
  ["Cc1nc(N)ccc1CNC(=O)[C@H](C)NC(=O)[C@H]1C[C@@H](c2cccc3ccccc23)CCN1.Cl.Cl [1297_2]", 3.69],
  ["Cc1nc(N)ccc1CNC(=O)[C@H](C)NC(=O)[C@H]1C[C@H](Cc2ccccc2)CN1", 3.89],
  ["C[C@H](NC(=O)[C@H]1C[C@@H](c2ccccc2)CCN1)C(=O)NCc1cc(Cl)ccc1O.Cl [1078_10]", 4.37]
]}

----------
targetEntity: MASP-2 CCP2-SP (Homo sapiens (Human), UniProt O00187)
Sequence (O00187 445-686): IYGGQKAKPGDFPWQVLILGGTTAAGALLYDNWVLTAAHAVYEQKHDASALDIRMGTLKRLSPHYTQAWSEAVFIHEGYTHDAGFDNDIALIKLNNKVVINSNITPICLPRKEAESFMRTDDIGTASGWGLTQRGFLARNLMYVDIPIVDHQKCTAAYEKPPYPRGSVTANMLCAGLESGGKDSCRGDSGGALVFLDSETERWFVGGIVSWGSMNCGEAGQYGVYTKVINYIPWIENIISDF
Sequence (O00187 364-432 partner): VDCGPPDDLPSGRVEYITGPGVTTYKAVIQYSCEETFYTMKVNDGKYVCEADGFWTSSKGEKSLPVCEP
assayProtocol: MASP-2 co-crystallization, X-ray crystallography and structure analysis (H-bonds, van der Waals contacts)
experimentalParameters: Table A8-6; nearest protein atom in cell to the left
quantityMeasured: Pharmacophore protein distance to SER_611

{"columns": ["molecule", "testValue"],
 "data": [
  ["C[C@H](NC(=O)[C@H](N)CCCc1ccccc1)C(=O)NCc1ccc(C(=N)N)cc1.Cl.Cl [1042_3]", 2.32],
  ["C[C@H](NC(=O)[C@H]1C[C@@H](c2ccccc2)CCN1)C(=O)NCc1cc(Cl)ccc1O.Cl [1078_1]", 2.41],
  ["C[C@H](NC(=O)C1C[C@@H](c2ccccc2)CCN1)C(=O)NCc1ccc(C(=N)N)cc1 (stereo in doubt)", 3.00],
  ["C[C@H](NC(=O)[C@H](N)CCc1ccccc1)C(=O)NCc1ccc(C(=N)N)cc1", 2.54],
  ["C[C@H](NC(=O)[C@H](N)CCc1cc(Cl)cc(Cl)c1)C(=O)NCc1ccc(C(=N)N)cc1", 3.12],
  ["C[C@H](NC(=O)[C@@H](CCc1ccccc1)NCc1ccc(N2CCOCC2)cc1)C(=O)NCc1ccc(C(=N)N)cc1", 2.96],
  ["C[C@H](NC(=O)[C@H](N)CCc1ccccc1)C(=O)NCc1ccc(N)nc1.Cl.Cl [1007_1]", 2.06]
]}

----------
targetEntity: MASP-2 CCP2-SP (Homo sapiens (Human), UniProt O00187)
assayProtocol: MASP-2 co-crystallization, X-ray crystallography and structure analysis (H-bonds, van der Waals contacts)
experimentalParameters: Table A1 (H-Bonds); SER 628 O
Counter-ions that a name gives are not always drawn.
quantityMeasured: H-bond distance to MASP-2 SER 628 atom O

{"columns": ["compound", "testValue"],
 "data": [
  ["Cc1nc(N)ccc1CNC(=O)[C@H](C)NC(=O)[C@H]1C[C@H](Cc2ccccc2)CN1", 3.18],
  ["CNC(=O)c1ccc2c(=O)n(Cc3ccccc3)c(=O)n(CC(=O)NCc3ccc(C(=N)N)cc3)c2c1", 3.01],
  ["C[C@H](NC(=O)[C@H]1Cc2c([nH]c3ccccc23)CN1)C(=O)NCc1ccc(C(=N)N)cc1", 3.03],
  ["C[C@H](NC(=O)[C@H]1C[C@H](c2ccccc2)CN1)C(=O)NCc1ccc(C(=N)N)cc1", 2.9],
  ["Cc1nc(N)ccc1CNC(=O)[C@H](C)NC(=O)[C@H]1C[C@H](Cc2cc(-c3ccccc3)cs2)CN1 [compound 1399, Dihydrochloride]", 3.15],
  ["CC(=O)Nc1ccc(CCN[C@H](CCc2ccccc2)C(=O)N[C@@H](C)C(=O)NCc2ccc(N)nc2C)cc1 [compound 1368, Dihydrochloride]", 3.16],
  ["C[C@H](NC(=O)[C@H](N)CCCc1ccccc1)C(=O)NCc1ccc(C(=N)N)cc1", 2.74]
]}

----------
# d(CA1,O1) listing for each entry below
targetEntity: MASP-2 CCP2-SP (Homo sapiens (Human))
assayProtocol: MASP-2 co-crystallization, X-ray crystallography and structure analysis (H-bonds, van der Waals contacts)
experimentalParameters: Table A5-1 pharmacophore: distance between elements, S2/S1 region
Structures can show the parent of a compound that is named as a salt.
quantityMeasured: d(CA1,O1)

{"columns": ["compound", "targetEntity", "quantityMeasured", "testValue"],
 "data": [
  ["CC(=O)Nc1ccc(CCNC(CCc2ccccc2)C(=O)NC(C)C(=O)NCc2ccc(C(=N)N)cc2)cc1.Cl.Cl (centres unmarked) [1345_2]", "MASP-2 CCP2-SP (Homo sapiens (Human))", "d(CA1,O1)", 4.58],
  ["C[C@H](NC(=O)[C@H](N)C1Cc2ccccc2C1)C(=O)NCc1ccc2c(N)nccc2c1.Cl.Cl [1088_A]", "MASP-2 CCP2-SP (Homo sapiens (Human))", "d(CA1,O1)", 5.33],
  ["C[C@H](NC(=O)[C@@H](CCc1ccccc1)NCCCc1ccc(O)cc1)C(=O)NCc1ccc(C(=N)N)cc1.Cl.Cl [1145_B]", "MASP-2 CCP2-SP (Homo sapiens (Human))", "d(CA1,O1)", 4.42],
  ["C[C@H](NC(=O)[C@H](N)CCCc1ccccc1)C(=O)NCc1ccc(C(=N)N)cc1.Cl.Cl [1042_2]", "MASP-2 CCP2-SP (Homo sapiens (Human))", "d(CA1,O1)", 4.47],
  ["C[C@H](NC(=O)[C@H]1C[C@@H](c2ccccc2)CCN1)C(=O)NCc1cc(Cl)ccc1O.Cl [1078_2]", "MASP-2 CCP2-SP (Homo sapiens (Human))", "d(CA1,O1)", 4.69],
  ["C[C@H](NC(=O)[C@H](N)CCCc1ccccc1)C(=O)NCc1ccc(C(=N)N)cc1.Cl.Cl [1042_1]", "MASP-2 CCP2-SP (Homo sapiens (Human))", "d(CA1,O1)", 3.98],
  ["Cc1nc(N)ccc1CNC(=O)[C@H](C)NC(=O)[C@H]1C[C@H](Cc2cccc(Cl)c2)CN1.Cl.Cl [1328_1]", "MASP-2 CCP2-SP (Homo sapiens (Human))", "d(CA1,O1)", 4.24],
  ["C[C@H](NC(=O)[C@H]1C[C@@H](c2ccccc2)CCN1)C(=O)NCc1cc(Cl)ccc1O.Cl [1078_6]", "MASP-2 CCP2-SP (Homo sapiens (Human))", "d(CA1,O1)", 5.90],
  ["Cc1nc(N)ccc1CNC(=O)[C@H](C)NC(=O)[C@H]1C[C@H](Cc2cc(Cl)cc(Cl)c2)CN1 [compound 1435, Dihydrochloride]", "MASP-2 CCP2-SP (Homo sapiens (Human))", "d(CA1,O1)", 4.36],
  ["Cc1nc(N)ccc1CNC(=O)[C@H](C)NC(=O)[C@H]1C[C@H](Cc2ccccc2Br)CN1.O=C(O)C(F)(F)F.O=C(O)C(F)(F)F [1372_B]", "MASP-2 CCP2-SP (Homo sapiens (Human))", "d(CA1,O1)", 4.37],
  ["C[C@H](NC(=O)[C@H]1C[C@@H](c2ccccc2)CCN1)C(=O)NCc1cc(Cl)ccc1O.Cl [1078_3]", "MASP-2 CCP2-SP (Homo sapiens (Human))", "d(CA1,O1)", 4.44],
  ["C[C@H](NC(=O)[C@@H](CCc1ccccc1)NCc1ccc(C(=O)N2CCOCC2)cc1)C(=O)NCc1ccc(C(=N)N)cc1.Cl.Cl [1153_B]", "MASP-2 CCP2-SP (Homo sapiens (Human))", "d(CA1,O1)", 5.51],
  ["C[C@H](NC(=O)[C@H]1C[C@@H](c2ccccc2)CCN1)C(=O)NCc1cc(Cl)ccc1O.Cl [1078_16]", "MASP-2 CCP2-SP (Homo sapiens (Human))", "d(CA1,O1)", 4.42],
  ["O=c1oc(-c2ccccc2[N+](=O)[O-])nc2ccccc12 [compound 14]", "MASP-2 CCP2-SP (Homo sapiens (Human))", "d(CA1,O1)", 3.49],
  ["C[C@H](NC(=O)[C@H]1Cc2c([nH]c3ccccc23)CN1)C(=O)NCc1ccc(C(=N)N)cc1.Cl.Cl [1097_2]", "MASP-2 CCP2-SP (Homo sapiens (Human))", "d(CA1,O1)", 4.35],
  ["C[C@H](NC(=O)[C@H]1C[C@@H](c2ccccc2)CCN1)C(=O)NCc1cc(Cl)ccc1O.Cl [1078_8]", "MASP-2 CCP2-SP (Homo sapiens (Human))", "d(CA1,O1)", 4.33],
  ["C[C@H](NC(=O)C1C[C@@H](c2ccccc2)CCN1)C(=O)NCc1ccc(C(=N)N)cc1 (stereo in doubt) [compound 1063]", "MASP-2 CCP2-SP (Homo sapiens (Human))", "d(CA1,O1)", 4.95],
  ["C[C@H](NC(=O)[C@H]1C[C@@H](c2ccccc2)CN1)C(=O)NCc1ccc2c(N)nccc2c1.Cl.Cl [1089_A]", "MASP-2 CCP2-SP (Homo sapiens (Human))", "d(CA1,O1)", 5.75],
  ["C[C@H](NC(=O)[C@H](N)C1Cc2ccccc2C1)C(=O)NCc1ccc2nc(N)[nH]c2c1 [compound 1059]", "MASP-2 CCP2-SP (Homo sapiens (Human))", "d(CA1,O1)", 5.32],
  ["C[C@H](NC(=O)[C@H]1C[C@@H](c2ccccc2)CCN1)C(=O)NCc1cc(Cl)ccc1O.Cl [1078_12]", "MASP-2 CCP2-SP (Homo sapiens (Human))", "d(CA1,O1)", 4.34],
  ["CNC(=O)c1ccc2c(=O)n(Cc3ccccc3)c(=O)n(CC(=O)NCc3ccc(C(=N)N)cc3)c2c1 [compound 2018]", "MASP-2 CCP2-SP (Homo sapiens (Human))", "d(CA1,O1)", 7.59],
  ["Cc1nc(N)ccc1CNC(=O)[C@H](C)NC(=O)[C@H]1C[C@@H](c2cccc3ccccc23)CCN1.Cl.Cl [1297_2]", "MASP-2 CCP2-SP (Homo sapiens (Human))", "d(CA1,O1)", 4.48],
  ["C[C@H](NC(=O)[C@H](N)CCc1cc(Cl)cc(Cl)c1)C(=O)NCc1ccc(C(=N)N)cc1 [compound 1118]", "MASP-2 CCP2-SP (Homo sapiens (Human))", "d(CA1,O1)", 4.35]
]}

Hello, the source for this data is patent US12195427B2, in case you need it.
